Endpoint: IC50. System: Chk1 (Homo sapiens, UniProt O14757). Items follow.
Sequence (O14757 whole entry, species assumed): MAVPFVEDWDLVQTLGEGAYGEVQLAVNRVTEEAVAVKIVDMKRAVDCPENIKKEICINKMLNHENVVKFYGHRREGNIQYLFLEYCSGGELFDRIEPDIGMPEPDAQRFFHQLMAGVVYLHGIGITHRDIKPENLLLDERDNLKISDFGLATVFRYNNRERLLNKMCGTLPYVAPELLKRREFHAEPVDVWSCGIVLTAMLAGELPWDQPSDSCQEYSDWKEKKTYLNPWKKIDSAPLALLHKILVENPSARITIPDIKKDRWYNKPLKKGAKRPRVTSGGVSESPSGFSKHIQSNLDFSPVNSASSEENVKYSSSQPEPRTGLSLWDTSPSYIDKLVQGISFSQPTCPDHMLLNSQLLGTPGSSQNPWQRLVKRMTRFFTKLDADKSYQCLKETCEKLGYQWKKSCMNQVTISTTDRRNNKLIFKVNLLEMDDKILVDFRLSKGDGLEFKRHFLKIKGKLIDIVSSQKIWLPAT

[in] What measured IC50 goes with C[Si](C)(C)CCS(=O)(=O)N=S(C)(=O)c1ccc2cc1OCCCCNc1nc(ncc1Br)N2 (racemic) [Example 9] ?
[out] > 12.5 µM

[in] Request: C[Si](C)(C)CCS(=O)(=O)N=S(C)(=O)c1ccc2cc1NCCCCNc1nc(ncc1Br)N2 (racemic) [Example 5]
[out] > 20 µM

[in] Request: CCCS(=O)(=O)N=S(C)(=O)c1ccc2cc1NCCCCNc1nc(ncc1Br)N2 (racemic) [Example 7]
[out] > 20 µM
